Documented growth across a set of compounds
- Tested on: EKVX NSCLC
- assay.name: NCI-60 one-dose screen, 48 h (100 = growth as untreated, 0 = no growth, -100 = all killed)
- experimental.context: 10 µM unless noted
- Protocol: Growth inhibition of the EKVX human Non-Small Cell Lung tumor cell line is measured as a screen for anti-cancer activity. Cells are grown in 96 well plates and exposed to the test compound for 48 hours. Compounds are tested at a single concentration, which is 10^-5 M for most compounds. The reported endpoint is percent growth (GI% or GIPRCNT), where numbers from 0 - 100% represent growth inhibition, and numbers from -100% - 0 represent cell death. […]
Compounds without any hit were thinned out: in the full panel of roughly 83,000, 20% have a hit.
Answer format: numeric, % implied, no suffix.

Record excerpt, results attached:
[
  {
    "compound": "CC(C)(C)OC[C@@H]1N=C(c2ccc(Br)cc2)Nc2nc3ccccn3c2C1=O",
    "growth / %": 81.6
  },
  {
    "compound": "Oc1ccccc1-c1nnc(COc2ccc(Cl)cc2Cl)o1",
    "growth / %": 31.1
  },
  {
    "compound": "CC1=CCC2C1CC=C(C)C(CC[C@H]1[C@@](C)(O)CCC3OC(C)(C)[C@H](OC(=O)c4ccccc4)CC[C@@]31C)C2(C)C (stereo not given in full)",
    "growth / %": 69.6
  },
  {
    "compound": "ClC1(Cl)C2CCCCCCC21 (stereo not given)",
    "growth / %": 107
  }
]

API: the following record is the query input.
Any idea what growth was measured for Nc1c(N)c2ccccc2c2ccccc12 ? 92.6
